- measured_on: Polyunsaturated fatty acid 5-lipoxygenase (Rattus norvegicus, UniProt P12527)
- Sequence (P12527 whole entry): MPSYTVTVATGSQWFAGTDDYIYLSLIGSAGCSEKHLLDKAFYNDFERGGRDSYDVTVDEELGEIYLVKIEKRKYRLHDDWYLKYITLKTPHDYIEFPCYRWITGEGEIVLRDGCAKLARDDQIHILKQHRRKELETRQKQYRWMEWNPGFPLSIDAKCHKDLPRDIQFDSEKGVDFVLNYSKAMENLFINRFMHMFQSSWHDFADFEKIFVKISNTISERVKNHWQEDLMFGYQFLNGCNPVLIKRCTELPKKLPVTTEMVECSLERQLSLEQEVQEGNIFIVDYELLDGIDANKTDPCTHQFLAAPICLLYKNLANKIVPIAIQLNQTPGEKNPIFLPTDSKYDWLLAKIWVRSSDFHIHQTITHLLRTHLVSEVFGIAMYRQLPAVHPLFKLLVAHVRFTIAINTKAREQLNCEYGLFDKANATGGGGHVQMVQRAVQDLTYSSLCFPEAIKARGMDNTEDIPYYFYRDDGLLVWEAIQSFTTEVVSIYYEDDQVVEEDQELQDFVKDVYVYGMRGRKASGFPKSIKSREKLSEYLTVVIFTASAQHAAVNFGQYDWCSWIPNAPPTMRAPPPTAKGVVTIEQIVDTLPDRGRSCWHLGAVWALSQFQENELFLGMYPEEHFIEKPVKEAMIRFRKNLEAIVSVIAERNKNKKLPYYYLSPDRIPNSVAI
- assay_text: In vitro inhibitory activity against 5-lipoxygenase in rat basophilic leukemia cells(RBL-1)
measured_parameter: IC50 (nM)
Enter your answer as a number in nM; do not include the unit.

Which value of IC50 has been reported for CC(C)Cc1ccc(C(Cc2ccccc2)C(=O)N(C)O)cc1 (stereo unspecified) in the records?
1500
